Molecular target: T1, hBCMA (human BCMA) (Homo sapiens, UniProt Q02223)
T1 sequence (Q02223 1-184): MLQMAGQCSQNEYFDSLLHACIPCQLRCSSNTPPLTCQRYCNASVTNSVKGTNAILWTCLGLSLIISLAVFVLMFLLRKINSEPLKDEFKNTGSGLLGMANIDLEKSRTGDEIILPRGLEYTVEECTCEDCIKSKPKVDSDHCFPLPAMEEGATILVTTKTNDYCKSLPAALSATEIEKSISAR
Test: Kinetics and affinity of hBCMA/human IgG interactions by SPR (Bio-Rad Proteon XPR36)
Type: binding
Settings: huBCMA, 37° C.
Measured kd (1/s) huBCMA @37° C. values are reported for all entries that follow.
measure: kd (1/s) huBCMA @37° C. (s⁻¹)

{"columns": ["molecule", "quantitativeResult"],
 "data": [
  ["L3.PY/L3.KF/H3.AE: anti-BCMA antibody (antibody, V domains shown) VH: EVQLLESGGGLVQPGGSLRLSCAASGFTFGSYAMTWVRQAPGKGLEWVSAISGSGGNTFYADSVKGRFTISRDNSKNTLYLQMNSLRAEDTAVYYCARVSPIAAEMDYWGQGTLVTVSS VL: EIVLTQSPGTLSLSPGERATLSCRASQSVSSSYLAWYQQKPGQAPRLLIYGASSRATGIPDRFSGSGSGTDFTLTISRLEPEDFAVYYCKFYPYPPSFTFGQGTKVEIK", 0.00155],
  ["L3.PY/L3.KY/H2.QL: anti-BCMA antibody (antibody, V domains shown) VH: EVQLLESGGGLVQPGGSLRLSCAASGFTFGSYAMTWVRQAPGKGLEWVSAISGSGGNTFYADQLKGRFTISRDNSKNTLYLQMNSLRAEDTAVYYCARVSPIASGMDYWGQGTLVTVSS VL: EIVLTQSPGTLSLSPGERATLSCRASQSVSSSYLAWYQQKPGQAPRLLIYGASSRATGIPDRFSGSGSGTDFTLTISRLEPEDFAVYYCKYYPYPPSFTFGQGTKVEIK", 0.00208]
]}
